// reported MFI per item
biological target: T1, human TMEM106B (human, UniProt Q9NUM4 2-274); assay: FACS U251
T1 construct: full-length, transiently expressed on HEK293 cells, or natively expressed on HeLa, U251 and A549 cells (the cell is named under assay); also the source of the Pepscan peptides; also called huTMEM106B; huTMEM
Give just the number in MFI; leave the unit off.

Record excerpt, results attached:
| binder | unitDescriptor | MFI |
| --- | --- | --- |
| TM-29 (antibody, V domains shown) VH: QVQLRQSGAELVRPGASVKLSCKASGYTFTDYYINWVKQRPGQGLEWIARIYPGSGYTYYNEKFKGKATLTAEGSSNTAYMQLSSLTSEDSAVYFCANHYTNPFAYWGQGTLVTVSA VL: DIVMTQAAFSNPVTLGTSASISCRSSKSLLHYNGITYLYWYLQKPGQSPQLLIYQMSNLASGVPDRFSSSGSGTDFTLRISRVEAEDVGVYYCAQNLELPYTFGGGTKLEIK | MFI | 730 |
| TM-49 (antibody, V domains shown, mouse IgG (hybridoma)) VH: QVQLQQPGAELVRPGSSVKLSCKASGYTFTRFWMHWVKQRPIQGLEWIGNIDPSDSQTHYNQKFKDKATLTVDKSSSTAYMQLSSLTSEDSAVYYCARLITVDYAMDYWGQGTSVTVSS VL: QIVLTQSPAIMSASPGEKVTISCSASSSVSYMYWYQQKPGSSPKPWIHRTSNLASGVPVRFSGSGSGTSYSLTISSMEAEDAATYYCQQYHSYPPTFGAGTKLELK | MFI | 434 |
| TM-48 (antibody, V domains shown) VH: QVQLQQSGPELVKPGASVKLSCKASGYTFTSYDINWVKQRPGQGLEWIGWIYPRDGNTQYIEKLKGKATLTVDTSSSTAYMELHSLTSEDSAVYFCARWIFYAMDYWGQGTSVTVSS VL: DVLMTQTPLSLPVSLGNQASISCRSSQSIVHGNGNTYLEWYLQKPGQSPKLLIYKVSNRFSGVPDRFSGSGSGTDFTLKISRVEAEDLGVYYCFQGSHLPYTFGGGTKLEIK | MFI | 346 |

Sure, the documented MFI for TM-22 (antibody, V domains shown) VH: QVQLQQSGPELVKPGASVKISCKASGYRFTSYYIHWVKQRPGQGLEWIGWIYPGNGITNYNEKFKGKATLTADTSSSTAYMQLSSLTSEDSAVYYCASPYYGIRNCYFDVWGTGTTVTVSS VL: DVLMTQTPLSLPVSLGDHASISCRSGQSIVHSNGNTYLEWYLQKPGQSPKLLIYKVSNRFSGVPDRFSGSGSGTDFTLKISRVEAEDLGIYYCFQGSHVPWTFGGGTKLEIK is 313

Origin of values: patent US20200339680A1
